Source: patent US20250215101A1

- Test system: NCI-H747
- measurementNotes: Cytotoxicity assay, colorectal cancer cell line panel, onvansertib +/- 1 nM INBRX-109
- Type: cell-based
- setupConditions: Homo sapiens, NCI-H747, NCI-H747; onvansertib only
attributeMeasured: pEC50
By convention, pEC50 is the negative base-10 log of a molar concentration.

Could you share what pEC50 was measured for "CN1CCN(c2ccc(OC(F)(F)F)c(Nc3ncc4c(n3)-c3c(c(C(N)=O)nn3CCO)CC4)c2)CC1" , tested on NCI-H747?
7.15

###

- Test system: HT-55
- measurementNotes: Cytotoxicity assay, colorectal cancer cell line panel, onvansertib +/- 1 nM INBRX-109
- Type: cell-based
- setupConditions: Homo sapiens, HT55, HT-55; onvansertib + 1 nM INBRX-109
attributeMeasured: pEC50
Hey, just a heads up that pEC50 is the negative log base 10 of the concentration in molar.

Field: pEC50 (HT-55). Entry: "CN1CCN(c2ccc(OC(F)(F)F)c(Nc3ncc4c(n3)-c3c(c(C(N)=O)nn3CCO)CC4)c2)CC1"
7.36

###

- System: HCT 116
- measurementNotes: Cytotoxicity assay, colorectal cancer cell line panel, onvansertib +/- 1 nM INBRX-109
- Assay type: cell-based
- setupConditions: Homo sapiens, HCT-116, HCT 116; onvansertib + 1 nM INBRX-109
attributeMeasured: EC50 (nM)
Give the number; nM is assumed, so skip it.

What EC50 value was documented for this compound, "CN1CCN(c2ccc(OC(F)(F)F)c(Nc3ncc4c(n3)-c3c(c(C(N)=O)nn3CCO)CC4)c2)CC1" ?
66.8

###

- Test system: BxPC-3
- measurementNotes: Cytotoxicity assay, pancreatic cell line panel, onvansertib +/- 1 nM INBRX-109
- Type: cell-based
- setupConditions: Homo sapiens, BXPC-3, BxPC-3; onvansertib only
- Procedure: Monolayer cultures of each cell line were harvested for compound screening as detailed below. Also on day 2, test and control articles were added. On day 4, viability measurements were taken. […] Data was graphed in GraphPad Prism 9. The results for a panel of colorectal cancer cell lines are shown in Table 3 and FIGS. 4-6, and the results for a panel of pancreatic cell lines are shown in Table 4 and FIGS. 7 and 8.
attributeMeasured: EC50 (nM)
Give the value, in units of nM, as a plain number.

Give its EC50 value. Item: "CN1CCN(c2ccc(OC(F)(F)F)c(Nc3ncc4c(n3)-c3c(c(C(N)=O)nn3CCO)CC4)c2)CC1"
139

###

- System: SK-CO-1
- measurementNotes: Cytotoxicity assay, colorectal cancer cell line panel, onvansertib +/- 1 nM INBRX-109
- Type: cell-based
- setupConditions: Homo sapiens, SK-CO-1, SK-CO-1; onvansertib only
attributeMeasured: EC50 (nM)
Dear colleague, please return just the value in nM, with no unit written.

Record request: EC50 value, item CN1CCN(c2ccc(OC(F)(F)F)c(Nc3ncc4c(n3)-c3c(c(C(N)=O)nn3CCO)CC4)c2)CC1 [Onvansertib]
113

###

- Test system: Panc 03.27
- measurementNotes: Cytotoxicity assay, pancreatic cell line panel, onvansertib +/- 1 nM INBRX-109
- Assay type: cell-based
- setupConditions: Homo sapiens, PANC-03-27, Panc 03.27; onvansertib + 1 nM INBRX-109
- Method: Monolayer cultures of each cell line were harvested for compound screening as detailed below. Also on day 2, test and control articles were added. On day 4, viability measurements were taken. […] Data was graphed in GraphPad Prism 9. The results for a panel of colorectal cancer cell lines are shown in Table 3 and FIGS. 4-6, and the results for a panel of pancreatic cell lines are shown in Table 4 and FIGS. 7 and 8.
attributeMeasured: EC50 (nM)
Answer with a number only, understood to be in nM.

I am curious: what EC50 value has been reported for "CN1CCN(c2ccc(OC(F)(F)F)c(Nc3ncc4c(n3)-c3c(c(C(N)=O)nn3CCO)CC4)c2)CC1" ?
90

###

- Tested on: KP4
- measurementNotes: Cytotoxicity assay, pancreatic cell line panel, onvansertib +/- 1 nM INBRX-109
- Assay type: cell-based
- setupConditions: Homo sapiens, KP-4, KP4; onvansertib only
- Protocol: Monolayer cultures of each cell line were harvested for compound screening as detailed below. Also on day 2, test and control articles were added. On day 4, viability measurements were taken. […] Data was graphed in GraphPad Prism 9. The results for a panel of colorectal cancer cell lines are shown in Table 3 and FIGS. 4-6, and the results for a panel of pancreatic cell lines are shown in Table 4 and FIGS. 7 and 8.
attributeMeasured: EC50 (nM)
Unit nM implied. Number only.

Requested field: EC50. Item: "CN1CCN(c2ccc(OC(F)(F)F)c(Nc3ncc4c(n3)-c3c(c(C(N)=O)nn3CCO)CC4)c2)CC1"
105

###

- Test system: SW1353
- measurementNotes: Cell viability (CellTiter-Glo) cytotoxicity assay, INBRX-109 x CDK9 or MCL-1 inhibitor matrix, 48 h, chondrosarcoma line
- setupConditions: NVP-2 only
attributeMeasured: pEC50
Worth noting: pEC50 values are minus log10 of concentrations stated in mol/L.

Sample "COC[C@@H](C)N[C@H]1CC[C@H](Nc2cc(-c3cccc(NCC4(C#N)CCOCC4)n3)c(Cl)cn2)CC1" — what was its pEC50?
7.51

###

- Tested on: SNU-81
- measurementNotes: Cytotoxicity assay, colorectal cancer cell line panel, onvansertib +/- 1 nM INBRX-109
- Assay type: cell-based
- setupConditions: onvansertib only
- Protocol: Monolayer cultures of each cell line were harvested for compound screening as detailed below. Also on day 2, test and control articles were added. On day 4, viability measurements were taken. […] Data was graphed in GraphPad Prism 9. The results for a panel of colorectal cancer cell lines are shown in Table 3 and FIGS. 4-6, and the results for a panel of pancreatic cell lines are shown in Table 4 and FIGS. 7 and 8.
attributeMeasured: EC50 (nM)
// units = nM; emit number, no label

Query (molecule): CN1CCN(c2ccc(OC(F)(F)F)c(Nc3ncc4c(n3)-c3c(c(C(N)=O)nn3CCO)CC4)c2)CC1 [Onvansertib] ; field requested: EC50
187

###

- System: SW620
- measurementNotes: Cell viability (CellTiter-Glo) cytotoxicity assay, INBRX-109 x CDK9 or MCL-1 inhibitor matrix, 48 h, colorectal cancer line
- setupConditions: enitociclib only
attributeMeasured: pEC50
Scale: pEC50 equals -log10([C]), with [C] in mol/L.

Lab note: need pEC50 for COc1cc(F)ccc1-c1cc(Nc2cc(CS(C)(=N)=O)ccn2)ncc1F (stereo not shown) on SW620, anyone have it?
7.59

###

- Test system: OUMS-27
- measurementNotes: Cell viability (CellTiter-Glo) cytotoxicity assay, INBRX-109 x CDK9 or MCL-1 inhibitor matrix, 48 h, chondrosarcoma line
- setupConditions: enitociclib only
attributeMeasured: pEC50
Scale for pEC50: -log10 of concentration given in mol/L; no unit attached.

Can you share its pEC50? I mean this compound: COc1cc(F)ccc1-c1cc(Nc2cc(CS(C)(=N)=O)ccn2)ncc1F (stereo not shown) [Enitociclib]
7.29

###

- Tested on: SW-1990
- measurementNotes: Cytotoxicity assay, pancreatic cell line panel, onvansertib +/- 1 nM INBRX-109
- Type: cell-based
- setupConditions: Homo sapiens, SW1990, SW-1990; onvansertib only
attributeMeasured: pEC50
Note on units: pEC50 is unitless, being -log10 of a concentration expressed in mol/L.

Reported pEC50 for "CN1CCN(c2ccc(OC(F)(F)F)c(Nc3ncc4c(n3)-c3c(c(C(N)=O)nn3CCO)CC4)c2)CC1" : what is it?
6.16

###

- System: SW1353
- measurementNotes: Cell viability (CellTiter-Glo) cytotoxicity assay, INBRX-109 x CDK9 or MCL-1 inhibitor matrix, 48 h, chondrosarcoma line
- setupConditions: flavopiridol only
attributeMeasured: EC50 (nM)
// units = nM; emit number, no label

Hi! What's the reported EC50 for "CN1CC[C@H](c2c(O)cc(O)c3c(=O)cc(-c4ccccc4Cl)oc23)[C@H](O)C1" on SW1353?
202

###

- System: SW-948
- measurementNotes: Cytotoxicity assay, colorectal cancer cell line panel, onvansertib +/- 1 nM INBRX-109
- Type: cell-based
- setupConditions: Homo sapiens, SW948, SW-948; onvansertib + 1 nM INBRX-109
attributeMeasured: pEC50
Note: pEC50 values are expressed as the negative base-10 logarithm of concentration in M.

Field request: pEC50 | item: "CN1CCN(c2ccc(OC(F)(F)F)c(Nc3ncc4c(n3)-c3c(c(C(N)=O)nn3CCO)CC4)c2)CC1"
7.63
